# tested.on: Voltage-gated inwardly rectifying potassium channel KCNH2 (Homo sapiens)
# Sequence (Q12809 whole entry): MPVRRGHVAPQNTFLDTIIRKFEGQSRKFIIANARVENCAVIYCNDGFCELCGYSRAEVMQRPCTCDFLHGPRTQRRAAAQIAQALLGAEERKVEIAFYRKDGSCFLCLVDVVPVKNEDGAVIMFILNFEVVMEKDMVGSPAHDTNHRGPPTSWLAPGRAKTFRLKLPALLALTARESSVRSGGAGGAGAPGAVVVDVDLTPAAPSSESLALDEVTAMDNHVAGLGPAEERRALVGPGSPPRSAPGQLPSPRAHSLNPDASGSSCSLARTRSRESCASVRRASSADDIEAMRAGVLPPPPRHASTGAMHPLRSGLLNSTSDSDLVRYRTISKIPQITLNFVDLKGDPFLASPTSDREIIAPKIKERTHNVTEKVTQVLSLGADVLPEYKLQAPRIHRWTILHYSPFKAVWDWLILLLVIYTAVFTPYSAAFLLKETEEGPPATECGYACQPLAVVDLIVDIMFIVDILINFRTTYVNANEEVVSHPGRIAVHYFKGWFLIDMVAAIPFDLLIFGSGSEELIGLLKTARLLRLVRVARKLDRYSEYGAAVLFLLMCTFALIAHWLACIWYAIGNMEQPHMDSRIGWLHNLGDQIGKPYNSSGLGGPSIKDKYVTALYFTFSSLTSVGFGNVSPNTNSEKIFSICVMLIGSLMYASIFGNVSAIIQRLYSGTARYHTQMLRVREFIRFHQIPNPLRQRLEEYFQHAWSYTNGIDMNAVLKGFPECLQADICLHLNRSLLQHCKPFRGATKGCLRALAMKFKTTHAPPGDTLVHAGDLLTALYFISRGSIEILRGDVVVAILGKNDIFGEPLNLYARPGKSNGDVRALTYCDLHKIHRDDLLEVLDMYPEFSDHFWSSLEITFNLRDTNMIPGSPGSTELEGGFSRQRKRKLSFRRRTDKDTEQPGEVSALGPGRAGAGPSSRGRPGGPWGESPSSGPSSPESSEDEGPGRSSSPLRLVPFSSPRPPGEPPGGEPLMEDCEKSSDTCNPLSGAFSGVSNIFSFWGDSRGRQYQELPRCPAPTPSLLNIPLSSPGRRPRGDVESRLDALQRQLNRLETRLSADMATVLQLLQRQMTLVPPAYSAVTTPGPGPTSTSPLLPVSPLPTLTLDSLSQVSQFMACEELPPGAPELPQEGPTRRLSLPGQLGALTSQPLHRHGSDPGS
# Format: functional
# condition.context: human, cellular components; note: assay procedure not described here
result.type: AC50

macromolecule.sequence	result.type	reported.measurement
GENTAMICIN	AC50	> 30 µM

Sample `TEPRENONE` ; AC50 observed: > 30 µM

// field: AC50; key: `SITOSTEROLS` ; value = > 30 µM

---

Measured AC50 values are reported for all entries that follow.
# tested.on: Peroxisome proliferator-activated receptor gamma (Homo sapiens)
# Sequence (P37231 whole entry): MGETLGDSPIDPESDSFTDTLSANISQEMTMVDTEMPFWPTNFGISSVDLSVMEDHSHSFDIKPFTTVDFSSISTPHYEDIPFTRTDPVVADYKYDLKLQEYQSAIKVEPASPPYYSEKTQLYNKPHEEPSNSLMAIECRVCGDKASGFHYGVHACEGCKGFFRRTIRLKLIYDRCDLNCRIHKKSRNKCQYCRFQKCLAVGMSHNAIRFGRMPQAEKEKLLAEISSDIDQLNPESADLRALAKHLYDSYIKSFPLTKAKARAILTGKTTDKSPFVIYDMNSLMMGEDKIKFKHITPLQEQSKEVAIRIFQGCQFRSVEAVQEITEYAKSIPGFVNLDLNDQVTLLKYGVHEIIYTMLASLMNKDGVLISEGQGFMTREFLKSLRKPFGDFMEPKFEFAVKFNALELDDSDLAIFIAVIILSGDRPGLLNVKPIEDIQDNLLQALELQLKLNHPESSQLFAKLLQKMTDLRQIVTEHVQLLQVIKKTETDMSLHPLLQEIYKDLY
# Assay type: functional

Worked examples, 6 molecules total:
molecule	AC50
CN(C)CCOC(c1ccc(Cl)cc1)c1ccccn1 (configuration not stated) [CARBINOXAMINE]	> 30 µM
COc1cccc2c1C(=O)c1c(O)c3c(c(O)c1C2=O)C[C@@](O)(C(=O)CO)C[C@@H]3O[C@H]1C[C@H](N)[C@H](O)[C@H](C)O1 [DOXORUBICIN]	> 30 µM
COC(=O)c1ccc2c(c1)NC(=O)/C2=C(\Nc1ccc(N(C)C(=O)CN2CCN(C)CC2)cc1)c1ccccc1 [NINTEDANIB]	> 30 µM
CC(C)(Oc1ccc(Cl)cc1)C(=O)OCCOC(=O)c1cccnc1 [ETOFIBRATE]	> 30 µM
CCC[C@@]1(CCc2ccccc2)CC(O)=C([C@H](CC)c2cccc(NS(=O)(=O)c3ccc(C(F)(F)F)cn3)c2)C(=O)O1	> 30 µM
CCCCCCCC(=O)CC[C@@H]1[C@@H](C/C=C\CCCC(=O)O)[C@@H](O)C[C@H]1O [UNOPROSTONE]	> 30 µM

// next item, AC50 requested
Looking up COc1ccc(-n2nc(C(N)=O)c3c2C(=O)N(c2ccc(N4CCCCC4=O)cc2)CC3)cc1 [APIXABAN] , I see its AC50 listed as > 30 µM

---

In this section we review reported AC50 values for a set of molecules.
# tested.on: Alpha-1A adrenergic receptor (Homo sapiens)
# Sequence (P35348 whole entry): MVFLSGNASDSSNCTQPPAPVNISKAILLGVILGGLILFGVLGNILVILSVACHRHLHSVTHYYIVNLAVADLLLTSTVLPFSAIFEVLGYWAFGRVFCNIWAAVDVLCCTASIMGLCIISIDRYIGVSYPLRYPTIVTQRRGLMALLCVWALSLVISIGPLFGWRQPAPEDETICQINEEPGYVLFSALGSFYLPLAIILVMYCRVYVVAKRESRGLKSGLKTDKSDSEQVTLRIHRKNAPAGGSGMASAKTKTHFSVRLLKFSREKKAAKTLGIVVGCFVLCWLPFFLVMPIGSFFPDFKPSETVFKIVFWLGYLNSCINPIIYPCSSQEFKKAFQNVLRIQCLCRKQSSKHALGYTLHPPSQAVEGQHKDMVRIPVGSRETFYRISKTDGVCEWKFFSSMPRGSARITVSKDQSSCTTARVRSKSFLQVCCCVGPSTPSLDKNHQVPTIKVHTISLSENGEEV

Observe how each entry below is paired with its result.
molecule	AC50
CCOC(=O)[C@H](CCc1ccccc1)N[C@@H](C)C(=O)N1Cc2ccccc2C[C@H]1C(=O)O	> 10 µM
CCC(=O)c1ccc2c(c1)N(CC(C)N(C)C)c1ccccc1S2 (stereo not given)	0.0294 µM
CC(=O)OCC1=C(C(=O)O)N2C(=O)[C@@H](NC(=O)CSc3ccncc3)[C@H]2SC1	> 10 µM
CN1C(=O)CN=C(c2ccccc2F)c2cc([N+](=O)[O-])ccc21	> 10 µM

Field: next molecule
Sample `C[C@@H](Cc1ccccc1)N(C)Cc1ccccc1` , system: Alpha-1A adrenergic receptor (Homo sapiens). Its AC50 is 6.96 µM
